B1: KRT13 (parent)
chain: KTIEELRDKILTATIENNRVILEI

variants of: B1; experiment: protein stability index of a GFP-peptide fusion (GPS, HEK-293T) (PSI 1-6); higher = more stable; settings: c terminus: a fixed tail appended;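 note: lentivirally expressed fusions sorted by FACS into six bins by GFP to DsRed ratio, PSI derived from sequencing read proportions per bin multiplied by bin number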
The label depends only on protein stability index: Fulfilled if it is at least 2, Not fulfilled if it is smaller.

KTIEELRDKILTATEENNRVILEI [I15E] = Not fulfilled

Okay, next one:
Check if protein stability index >= 2 (inclusive). Item: ATIEELRDKILTATIENNRVILEI [K1A]
Fulfilled
